Data origin, for the record: patent EP3807270B1

- assayed-target: hTLR7 (Homo sapiens)
- Sequence (Q9NYK1 27-1049): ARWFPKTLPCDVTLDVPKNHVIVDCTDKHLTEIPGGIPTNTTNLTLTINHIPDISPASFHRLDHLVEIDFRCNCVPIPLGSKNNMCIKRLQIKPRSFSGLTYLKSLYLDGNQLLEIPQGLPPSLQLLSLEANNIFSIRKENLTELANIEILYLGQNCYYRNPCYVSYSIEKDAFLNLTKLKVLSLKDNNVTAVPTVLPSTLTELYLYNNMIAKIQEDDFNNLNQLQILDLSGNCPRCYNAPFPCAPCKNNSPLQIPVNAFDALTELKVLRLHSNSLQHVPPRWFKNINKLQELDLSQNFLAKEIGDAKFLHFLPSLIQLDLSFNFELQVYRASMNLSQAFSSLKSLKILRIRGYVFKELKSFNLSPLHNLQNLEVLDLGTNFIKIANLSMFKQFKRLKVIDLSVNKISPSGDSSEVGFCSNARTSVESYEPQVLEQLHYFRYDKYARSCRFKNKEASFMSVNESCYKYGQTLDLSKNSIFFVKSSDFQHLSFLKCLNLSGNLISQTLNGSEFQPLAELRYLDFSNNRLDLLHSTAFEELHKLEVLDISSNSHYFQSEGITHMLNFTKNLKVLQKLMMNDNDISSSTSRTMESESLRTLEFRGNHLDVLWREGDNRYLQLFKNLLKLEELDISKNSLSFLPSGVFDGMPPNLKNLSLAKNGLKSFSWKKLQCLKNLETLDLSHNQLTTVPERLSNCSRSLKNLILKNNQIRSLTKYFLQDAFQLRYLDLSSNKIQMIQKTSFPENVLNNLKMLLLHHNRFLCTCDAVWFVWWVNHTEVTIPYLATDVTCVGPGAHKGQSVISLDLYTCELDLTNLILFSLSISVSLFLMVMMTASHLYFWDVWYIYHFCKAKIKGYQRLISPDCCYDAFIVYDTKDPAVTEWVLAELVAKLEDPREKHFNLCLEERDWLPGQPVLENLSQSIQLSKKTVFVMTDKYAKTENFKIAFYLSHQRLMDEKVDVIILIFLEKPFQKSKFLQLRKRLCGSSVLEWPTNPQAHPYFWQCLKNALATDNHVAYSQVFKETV
- procedure-text: HEK293-Blue-hTLR-7 cells assay (SEAP reporter, R848 stimulation)
- Format: cell-based
- Set-up: host or cells: HEK293 (HEK-Blue)
- assay-setup: HEK293-Blue-hTLR7 cells, R848, 20 hrs; read-out: HEK/hTLR7 IC50
observed-property: IC50 (nM)

[[record]]
compound = "C[C@@H]1CN(c2ccc(C#N)c3ncccc23)C[C@H](CN2CCC(Nc3ncc4c(n3)CNC4)C2)O1 (stereo partly drawn)"
observed_property = "IC50"
test_value = 69

[[record]]
compound = "C[C@@H]1CN(c2ccc(C#N)c3ncccc23)C[C@H](CN2CCN(c3ccc4c(n3)CN[C@@H]4C)CC2)O1 (single isomer, unassigned)"
observed_property = "IC50"
test_value = 12

[[record]]
compound = "C[C@@H]1CN(c2ccc(C#N)c3nccnc23)C[C@H](CN2CCN(c3cc4c(cn3)CCNC4)CC2)O1"
observed_property = "IC50"
test_value = 8


###

- assayed-target: hTLR7 (Homo sapiens, UniProt Q9NYK1)
- procedure-text: HEK293-Blue-hTLR-7 cells assay (SEAP reporter, R848 stimulation)
- Format: cell-based
- Parameters: host or cells: HEK293 (HEK-Blue)
- assay-setup: HEK293-Blue-hTLR7 cells, R848, 20 hrs; read-out: HEK/hTLR7 IC50
IC50 for assorted compounds
observed-property: IC50 (nM)

[[record]]
compound = "C[C@@H]1Cc2cnc(N3CCN(C[C@H]4CN(c5ccc(C#N)c6nccnc56)C[C@@H](C)O4)CC3)cc2CN1 (single isomer, unassigned) [Example 82]"
observed_property = "IC50"
test_value = 11

[[record]]
compound = "C[C@@H]1CN(c2ccc(C#N)c3ncccc23)C[C@H](CN2CCN(c3nc4c(s3)CNCC4)CC2)O1 [Example 31]"
observed_property = "IC50"
test_value = 11

[[record]]
compound = "C[C@@H]1CN(c2ccc(C#N)c3nccnc23)C[C@H](CN2CCN(c3cc4c(cn3)CN[C@@H](C)C4)CC2)O1 (single isomer, unassigned) [Example 84]"
observed_property = "IC50"
test_value = 7

